- method.description: Metabolic stability in dog liver microsomes assessed as intrinsic clearance after 120 mins in presence of NADPH
- Type: ADME, Canis lupus familiaris, Microsome
quantity: CLint scaled (mL/min/kg)
Answers are plain numbers, in mL/min/kg.

Q) Report CLint scaled for "CC(C)Nc1cc(-c2ccc(CCNC[C@H](O)c3ccccc3)cc2)ccc1C(=O)NS(C)(=O)=O.Cl.Cl" please.
A) 3.3

###

- method.description: Cmax in Beagle dog at 0.10 mg/kg, po by cassette assay
- Assay type: ADME, organism-based, Canis lupus familiaris
- Design: dose 0.1 mg/kg, route oral
- condition.set: in vivo, 0.1 mg/kg
Kindly supply the reported Cmax values for the records listed here.
# do not omit the unit; it follows the number

smiles.entry: CS(=O)(=O)NC(=O)c1ccc(-c2ccc(CCNC[C@H](O)c3ccccc3)cc2)cc1C1CCCC1.Cl
Cmax: 17.1 ng/mL
//
smiles.entry: CC(C)Nc1cc(-c2ccc(CCNC[C@H](O)c3ccccc3)cc2)ccc1C(=O)NS(C)(=O)=O.Cl.Cl
Cmax: 8.6 ng/mL
//
smiles.entry: CS(=O)(=O)NC(=O)c1ccc(-c2ccc(CCNC[C@H](O)c3cnccc3N)cc2)cc1OC1CCCCC1.Cl.Cl
Cmax: 2.5 ng/mL

Consider the additional molecule presented here.
Q) Report Cmax for "CS(=O)(=O)NC(=O)c1ccc(-c2ccc(CCNC[C@H](O)c3cccnc3)cc2)cc1C1CCCC1.Cl.Cl" please.
A) 1.4 ng/mL
